# Lookup of reported melting point keyed by entry
Structures can show the parent of a compound that is named as a salt.

The cases that follow already have their melting point on record.
Fc1cccc(F)c1-c1nc(N2CCNCC2)nc2ccccc12 (as salt: hydrochloride): 295 to 297 °C
CC1CN(c2nc(-c3ccccc3)c3ccccc3n2)C(C)CN1.Cl (stereo not drawn): 221 to 222 °C
Cl.NCCC1CCCN(c2nc(-c3ccccc3)c3ccccc3n2)C1 (stereo not drawn): 86 to 88 °C
Cc1ccc(-c2nc(N3CCN(C)CC3)nc3ccccc23)cc1: 85 to 87 °C
COC(=O)C1(c2nc(-c3ccccc3F)c3ccccc3n2)CCNCC1.Cl: 210 to 211 °C

Next:
GET /value?item= "CC(C)c1nc(N2CCNCC2)nc2ccccc12.Cl" &field=melting point returns 253 to 254 °C

====

# collection of pKi values tested on human norepinephrine transporter (Homo sapiens, UniProt P23975)
# Sequence (P23975 whole entry): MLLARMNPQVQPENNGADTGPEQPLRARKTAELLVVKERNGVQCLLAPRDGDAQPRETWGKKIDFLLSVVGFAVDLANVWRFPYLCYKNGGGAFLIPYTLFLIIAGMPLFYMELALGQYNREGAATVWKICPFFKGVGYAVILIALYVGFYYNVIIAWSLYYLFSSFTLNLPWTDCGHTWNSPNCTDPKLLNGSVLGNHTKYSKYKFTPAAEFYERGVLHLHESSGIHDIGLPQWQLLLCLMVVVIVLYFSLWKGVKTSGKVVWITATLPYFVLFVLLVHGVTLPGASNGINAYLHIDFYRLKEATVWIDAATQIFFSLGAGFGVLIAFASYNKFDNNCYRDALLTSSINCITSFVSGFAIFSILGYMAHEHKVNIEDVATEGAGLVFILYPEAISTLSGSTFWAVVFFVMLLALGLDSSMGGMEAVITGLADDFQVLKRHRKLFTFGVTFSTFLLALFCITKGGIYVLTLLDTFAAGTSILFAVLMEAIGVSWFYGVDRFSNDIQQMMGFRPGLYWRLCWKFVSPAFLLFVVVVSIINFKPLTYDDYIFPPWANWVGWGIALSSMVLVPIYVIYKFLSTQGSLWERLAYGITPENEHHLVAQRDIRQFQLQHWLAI
Scale for pKi: -log10 of concentration given in mol/L; no unit attached.

Completed entries (count: 4):
Fc1ccc2c(-c3ccc(F)c(F)c3)nc(N3CCNCC3)nc2c1: 8.14
Fc1ccc2c(-c3ccccc3)nc(N3CCNCC3)nc2c1: 7.86
CN1CCN(c2nc(-c3ccccc3Cl)c3ccccc3n2)CC1: 7.57
Cl.NC1CCN(c2nc(-c3ccccc3)c3ccccc3n2)CC1 [Example 12, hydrochloride]: 7.02

Short answer on human norepinephrine transporter (Homo sapiens, UniProt P23975) for CC(C)c1nc(N2CCNCC2)nc2ccccc12.Cl [Example 6, hydrochloride] , pKi: 7.78

====

Listed below: melting point values for each entry.

Field: example entries. Status: answers known.
CN1CC2CCCC(C1)N2c1nc(-c2ccccc2)c2ccccc2n1 [Example 5]: 118 to 121 °C
Cl.Fc1ccccc1-c1nc(N2CCNCC2)nc2ccccc12 [Example 20]: 276 to 277 °C
CN1CCN(c2nc(-c3cccc(F)c3)c3ccccc3n2)CC1 [Example 26]: 134 to 135 °C
Cl.c1ccc(-c2nc(N3CC4CCCC(C3)N4)nc3ccccc23)cc1 [Example 32]: > 300 °C

Value of melting point reported for the compound c1ccc(-c2nc(N3C4CCC3CNC4)nc3ccccc23)cc1 [Example 56] is 278 to 280 °C

The compound listed as Cl.N[C@H]1CCN(c2nc(-c3ccccc3)c3ccccc3n2)C1 [Example 14] shows melting point equal to 274 to 275 °C

====

target: human serotonin transporter (Homo sapiens)
Sequence (P31645 whole entry): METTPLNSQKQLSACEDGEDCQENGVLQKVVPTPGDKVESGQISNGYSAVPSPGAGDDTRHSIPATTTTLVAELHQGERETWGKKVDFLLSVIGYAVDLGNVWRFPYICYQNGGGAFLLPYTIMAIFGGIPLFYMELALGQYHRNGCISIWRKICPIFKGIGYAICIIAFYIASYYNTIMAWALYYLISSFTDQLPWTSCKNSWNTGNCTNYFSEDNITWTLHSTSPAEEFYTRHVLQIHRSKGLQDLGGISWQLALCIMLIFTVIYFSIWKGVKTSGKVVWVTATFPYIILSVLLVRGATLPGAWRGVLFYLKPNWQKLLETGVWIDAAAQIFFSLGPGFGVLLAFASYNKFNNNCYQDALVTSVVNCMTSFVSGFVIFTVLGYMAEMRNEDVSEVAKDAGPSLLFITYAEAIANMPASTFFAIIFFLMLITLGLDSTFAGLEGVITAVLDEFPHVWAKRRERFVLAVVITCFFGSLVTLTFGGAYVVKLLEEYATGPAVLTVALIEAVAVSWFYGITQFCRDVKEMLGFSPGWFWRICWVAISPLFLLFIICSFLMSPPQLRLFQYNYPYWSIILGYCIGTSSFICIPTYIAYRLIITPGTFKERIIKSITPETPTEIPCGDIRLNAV
Classify: Yes when Ki is strictly less than 50 nM; No when Ki is not.

Fc1cccc(F)c1-c1nc(N[C@H]2CCNC2)nc2ccccc12 [Example 101]: No
C[C@@H]1CNCCN1c1nc(-c2c(F)cccc2F)c2ccccc2n1 [Example 86]: No

I'd appreciate it if you could check whether Fc1cccc(F)c1-c1nc(N2CCNCC2)nc2ccc(Cl)cc12 [Example 131] has Ki smaller than 50 nM.
Yes

Ki under 50 nM? Item: Fc1ccc2c(-c3cccc(F)c3F)nc(N3CCNCC3)nc2c1 [Example 111]
Yes

Here's an entry: Fc1ccc(-c2nc(N3CCNCC3)nc3cc(F)ccc23)c(Cl)c1 [Example 134] . Is its Ki below 50 nM?
No
